FYI, the data here is from ChEMBL document CHEMBL1138616.

- Test system: HL-60
- protocolNotes: Cytotoxicity against human HL60 cells by sulforhodamine B assay
- Format: functional, cell-based
pIC50: −log10 of the molar value.
Label Condition met when pIC50 >= 5; otherwise Condition not met.

molecule=COCOc1ccccc1-c1c(Br)c2ccc(C)cc2c(=O)n1C system=HL-60 label="Condition not met"
molecule=C=COc1ccccc1-c1c(Br)c2cc(C)ccc2c(=O)n1Cc1ccc(OC)cc1 system=HL-60 label="Condition not met"
molecule="CC1Oc2ccccc2-c2c1c1ccccc1c(=O)n2C (stereo not given)" system=HL-60 label="Condition not met"
molecule=COc1ccc(Cn2c(-c3ccccc3O)c(Br)c3cc(C)ccc3c2=O)cc1 system=HL-60 label="Condition not met"
molecule=COCOc1ccccc1-c1c(Br)c2cc(OC)c(OC)cc2c(=O)n1C system=HL-60 label="Condition not met"
molecule=Cc1ccc2c(=O)n(C)c3c(c2c1)CCOc1ccccc1-3 system=HL-60 label="Condition not met"
molecule=COCOc1ccccc1-c1cc2cc(C)ccc2c(=O)[nH]1 system=HL-60 label="Condition met"
molecule=COCOc1ccccc1-c1cc2ccccc2c(=O)[nH]1 system=HL-60 label="Condition met"

###

- System: HeLa
- protocolNotes: Cytotoxicity against human HeLa cells by sulforhodamine B assay
- Type: functional, cell-based
parameter: IC50 (µM)

inputsmiles=COCOc1ccccc1-c1cc2ccccc2c(=O)[nH]1 parameter=IC50 unitabbrev=µM recordedresult=0.62
inputsmiles=COc1ccc(Cn2c3c(c4cc(C)ccc4c2=O)CCOc2ccccc2-3)cc1 parameter=IC50 unitabbrev=µM recordedresult=10.3
inputsmiles=COc1cc2c3c(n(C)c(=O)c2cc1OC)-c1ccccc1OCC3 parameter=IC50 unitabbrev=µM recordedresult=38.1
inputsmiles=CC[C@@]1(O)C(=O)OCc2c1cc1n(c2=O)Cc2cc3ccccc3nc2-1 parameter=IC50 unitabbrev=µM recordedresult=0.072
inputsmiles=COc1ccc(Cn2c(-c3ccccc3O)c(Br)c3ccccc3c2=O)cc1 parameter=IC50 unitabbrev=µM recordedresult=36.8

###

- system: DNA topoisomerase 1 (Homo sapiens) (UniProt P11387)
- Sequence (P11387 whole entry): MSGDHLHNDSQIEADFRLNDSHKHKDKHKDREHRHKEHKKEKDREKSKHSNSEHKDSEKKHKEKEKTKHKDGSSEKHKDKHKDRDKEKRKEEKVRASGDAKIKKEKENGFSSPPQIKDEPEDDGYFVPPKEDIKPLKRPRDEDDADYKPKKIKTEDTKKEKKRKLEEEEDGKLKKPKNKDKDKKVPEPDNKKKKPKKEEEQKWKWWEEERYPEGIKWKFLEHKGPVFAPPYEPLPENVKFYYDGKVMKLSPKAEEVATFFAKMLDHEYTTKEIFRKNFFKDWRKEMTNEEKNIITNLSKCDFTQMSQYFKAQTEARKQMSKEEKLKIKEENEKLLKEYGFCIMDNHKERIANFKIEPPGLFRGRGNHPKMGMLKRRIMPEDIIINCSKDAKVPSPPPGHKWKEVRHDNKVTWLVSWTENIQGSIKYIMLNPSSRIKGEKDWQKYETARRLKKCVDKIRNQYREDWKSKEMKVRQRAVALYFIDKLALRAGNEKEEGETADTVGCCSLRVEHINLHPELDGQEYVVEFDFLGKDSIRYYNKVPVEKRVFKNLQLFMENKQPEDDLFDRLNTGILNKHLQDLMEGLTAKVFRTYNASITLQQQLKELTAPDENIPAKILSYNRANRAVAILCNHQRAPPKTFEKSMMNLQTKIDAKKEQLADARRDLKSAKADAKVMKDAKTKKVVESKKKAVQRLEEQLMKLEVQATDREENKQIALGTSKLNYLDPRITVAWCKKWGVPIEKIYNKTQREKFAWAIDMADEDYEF
- protocolNotes: Inhibition of DNA topoisomerase 1 assessed as relaxation of supercoiled Escherichia coli pBR322 DNA at 100 uM
Active and inactive are the calls of the source. The rule behind the calls is not given here.
parameter: inhibition

compound=COc1ccc(Cn2c3c(c4ccc(C)cc4c2=O)CCOc2ccccc2-3)cc1 parameter=inhibition recordedresult=inactive
compound=COCOc1ccccc1-c1cc2cc(C)ccc2c(=O)n1C parameter=inhibition recordedresult=inactive
compound="CC1Oc2ccccc2-c2c1c1ccccc1c(=O)n2C (stereo unspecified)" parameter=inhibition recordedresult=inactive
compound="Cc1ccc2c3c(n(C)c(=O)c2c1)-c1ccccc1OC3C (stereo unspecified)" parameter=inhibition recordedresult=inactive
compound=Cn1c2c(c3ccccc3c1=O)CCOc1ccccc1-2 parameter=inhibition recordedresult=inactive
compound="COc1cc2c3c(n(C)c(=O)c2cc1OC)-c1ccccc1OC3C (stereo unspecified)" parameter=inhibition recordedresult=5.3%
compound=COCOc1ccccc1-c1cc2ccccc2c(=O)[nH]1 parameter=inhibition recordedresult=inactive
compound=COc1ccc(Cn2c(-c3ccccc3O)c(Br)c3cc(C)ccc3c2=O)cc1 parameter=inhibition recordedresult=inactive
compound=Cc1ccc2c(=O)n(C)c3c(c2c1)CCOc1ccccc1-3 parameter=inhibition recordedresult=inactive
compound=COCOc1ccccc1-c1c(Br)c2cc(OC)c(OC)cc2c(=O)n1C parameter=inhibition recordedresult=40.7%
compound=Cc1ccc2c3c(n(C)c(=O)c2c1)-c1ccccc1OCC3 parameter=inhibition recordedresult=11.9%
